- Tested on: H9
- PROCEDURE_DETAILS: Compound was tested for the cytotoxicity in H-9 cells infected with HIV-IIIB over 14 days
- Assay type: functional, Homo sapiens
ASSAY_METRIC: P24 concentration (ng/mL)
Expressed in ng/mL, but write only the number.

Please review the following examples before continuing.
CCCCCCOc1ncnc2c1ncn2[C@H]1C[C@H](CO)[C@@H](CO)O1 80
OC[C@H]1C[C@H](n2cnc3cncnc32)O[C@@H]1CO 80
COc1ncnc2c1ncn2[C@@H]1C[C@H](CO)[C@@H](CO)O1 80
CCCCCCOc1ncnc2c1ncn2[C@@H]1C[C@H](CO)[C@@H](CO)O1 80
OC[C@H]1C[C@@H](n2cnc3cncnc32)O[C@@H]1CO 80

Quickly give me recorded P24 concentration for `Nc1ncnc2c1ncn2[C@@H]1C[C@H](CO)[C@@H](CO)O1`
80

Input `OC[C@H]1C[C@@H](n2cnc3c(Cl)ncnc32)O[C@@H]1CO` , output reported P24 concentration.
80

Provide measured P24 concentration value, entry: `Nc1ncnc2c1ncn2[C@H]1C[C@H](CO)[C@@H](CO)O1`
2

Tell us which P24 concentration value is on record for `OC[C@H]1C[C@H](n2cnc3c(Cl)ncnc32)O[C@@H]1CO`
80

For the molecule `COc1ncnc2c1ncn2[C@H]1C[C@H](CO)[C@@H](CO)O1` , give its measured P24 concentration value.
6
